System: albino mouse
Method notes: Antagonism in the albino mouse of perphenazine catalepsy
Assay type: in vivo
Conditions: Mus musculus, po; perphenazine 10 mg/kg p.o.; drug per os; Examples 28, 29: 50 to 300 mg/kg
Recorded metric: log10 ED50 (log10 of the value in mg/kg)

INSERT INTO assay_data (molecule, val) VALUES
  ('c1ccc(C2(c3ccccc3)CCNCC2)cc1', 1.30),
  ('OCCN1CCC(c2ccccc2)(c2ccccc2)CC1', 1.18),
  ('O=C(CCCN1CCC(c2ccccc2)(c2ccccc2)CC1)c1ccc(F)cc1', 1.70),
  ('CCN1CCC(c2ccccc2)(c2ccccc2)CC1', 0.30),
  ('CC(C)N1CCC(c2ccccc2)(c2ccccc2)CC1', 0.85),
  ('CCC(C)N1CCC(c2ccccc2)(c2ccccc2)CC1 (stereo not shown)', 0.85),
  ('O=C(CCCN1CCC(c2ccccc2)(c2ccccc2)CC1)c1ccccc1', 1.70),
  ('CN1CCC(c2ccccc2)(c2ccccc2)CC1', 0.48),
  ('OCCCN1CCC(c2ccccc2)(c2ccccc2)CC1', 0.70);

----------
Method notes: Acute toxicity in the albino mouse
Conditions: in vivo, po; Table 1; albino mouse perorally; read-out: Acute toxicity
Procedure: As stated above, the compounds of formula I have advantageous central nervous system stimulating properties. Side-effects, as they are encountered on administration of amphetamine-type stimulants, are produced to a much lesser extent by the 4,4-diphenylpiperidine compounds, if at all. […] The tests were carried out according to known and accepted pharmacological standard test methods. a Acute toxicity 150 mg./kg. 100 mg./kg.
Recorded metric: LD50 (mg/kg)

INSERT INTO assay_data (molecule, val) VALUES
  ('CC(N)Cc1ccccc1 (stereo not shown) [Amphetamine, reference compound]', 100);
